FYI, the data here is from paper PMC3656107.

Biological target: MHC-II DRB1*07:01 (Homo sapiens, UniProt P01903+P01911, A100R/A102G/A103Q/D57E/D86V/E43K/F76Y/K127E/L162R/M171V/P40G/Q125H/Q99D/R33Q/R42Y/R54Q/S133A/S66F/T210M/V115G/Y107V/Y59L/Y89S)
Assay: Cell-free REVEAL class II stability assay
Conditions: half-life of peptide-MHC-II complex (h, capped at 120) x Binding Score / 100, conformational ELISA
OUTCOME MEASURE: Stability Index

// solved cases for Stability Index follow
INSERT INTO measurements (entry_sequence, outcome_measure, endpoint_value) VALUES
  ('NNPKEWLQVDFQKTM [synthetic wild type FVIII 15 mer peptide, region of ns-SNP M2238V]', 'Stability Index', 0.1),
  ('PENDIEKTDPWFAHR [synthetic wild type FVIII 15 mer peptide, region of ns-SNP R776G]', 'Stability Index', 0.0);

For this sequence ( YTFKHKMVYEDTLTL [synthetic wild type FVIII 15 mer peptide] ), measured Stability Index is 0.0

Field Stability Index (entry YISQFIIMYSLDGKK [synthetic wild type FVIII 15 mer peptide] ) reads 0.0

----------
Target: MHC-II DRB1*07:01 (Homo sapiens, UniProt P01903+P01911, A100R/A102G/A103Q/D57E/D86V/E43K/F76Y/K127E/L162R/M171V/P40G/Q125H/Q99D/R33Q/R42Y/R54Q/S133A/S66F/T210M/V115G/Y107V/Y59L/Y89S)
Assay: Cell-free REVEAL class II binding assay
Details: signal of test peptide as percentage of allele-specific positive control peptide, fluorescence, conformation-specific monoclonal antibody
From the text: We used a proprietary high throughput, REVEAL binding assay (ProImmune, www.proimmune.com) to estimate the binding of individual test peptides to the following MHC-II variants: DRB1*03:01, DRB1*04:01, DRB1*07:01, DRB1*11:01, DRB1*15:01 and DRB1*15:03 [28]. […] The peptide-MHC-II complex is detected by an increase in a fluorescence signal due to the binding of a specific monoclonal antibody. […]
Recorded Binding Score for the following sequences

Solved entries:
INSERT INTO results (entry_sequence, endpoint_value) VALUES
  ('RSNAWRPQVNNPKEW [synthetic wild type FVIII 15 mer peptide]', '0.0%'),
  ('PRCLTRYYSSFVNME [synthetic wild type FVIII 15 mer peptide]', '0.0%'),
  ('YNIYPHGITDVRPLY [synthetic wild type FVIII 15 mer peptide, region of ns-SNP R484H]', '0.1%'),
  ('YPHGITDVRPLYSRR [synthetic wild type FVIII 15 mer peptide, region of ns-SNP R484H]', '0.1%'),
  ('QKTMKVTGVTTQGVK [synthetic wild type FVIII 15 mer peptide, region of ns-SNP M2238V]', '0.0%');

Looking up AHRTPMPKIQNVSSS [synthetic wild type FVIII 15 mer peptide, region of ns-SNP R776G] , I found its Binding Score recorded as 0.0%

Lab note: measured Binding Score of PWFAHRTPMPKIQNV [synthetic wild type FVIII 15 mer peptide, region of ns-SNP R776G] was 2.7%

Lookup result for SGYTFKHKMVYEDTL [synthetic wild type FVIII 15 mer peptide] ; measured Binding Score: 0.0%

Recorded result, HKMVYEDTLTLFPFS [synthetic wild type FVIII 15 mer peptide] , Binding Score: 0.0%

Entry PENDIEKTDPWFAHR [synthetic wild type FVIII 15 mer peptide, region of ns-SNP R776G] — recorded Binding Score = 0.0%

So for IFNPPIIARYIRLHP [synthetic wild type FVIII 15 mer peptide] , the logged Binding Score turned out to be 0.0%

Input MKVTGVTTQGVKSLL [synthetic wild type FVIII 15 mer peptide, region of ns-SNP M2238V] . Output Binding Score: 0.0%

Query DVRPLYSRRLPKGVK [synthetic wild type FVIII 15 mer peptide, region of ns-SNP R484H] yields Binding Score of 0.2%

For reference, reported Binding Score for RIHPQSWVHQIALRM [synthetic wild type FVIII 15 mer peptide] stands at 2.1%

Form field Binding Score, entry SQFIIMYSLDGKKWQ [synthetic wild type FVIII 15 mer peptide] : 0.0%

For reference, reported Binding Score for LFLLSTRQNVEGSYD [synthetic wild type FVIII 15 mer peptide, region of ns-SNP D1241E] stands at 0.3%

For IIMYSLDGKKWQTYR [synthetic wild type FVIII 15 mer peptide] the sequence record lists Binding Score as 0.0%

Notebook: VVNSLDPPLLTRYLR [synthetic wild type FVIII 15 mer peptide] , Binding Score read as 0.0%

Per the record, TVEDGPTKSDPRCLT [synthetic wild type FVIII 15 mer peptide] has Binding Score of 0.0%

----------
Biological target: MHC-II DRB1*15:01 (Homo sapiens, UniProt P01903+P01911)
Construct: purchased ProImmune
Assay: Cell-free REVEAL class II binding assay
Conditions: signal of test peptide as percentage of allele-specific positive control peptide, fluorescence, conformation-specific monoclonal antibody
OUTCOME MEASURE: Binding Score (%)
Write it as a number; the unit % goes unstated.

Just so you know, measured Binding Score for SGYTFKHKMVYEDTL [synthetic wild type FVIII 15 mer peptide] came out at 1.0

For YIRLHPTHYSIRSTL [synthetic wild type FVIII 15 mer peptide] the sequence record lists Binding Score as 1195.7

Measured Binding Score of PENDIEKTDPWFAHR [synthetic wild type FVIII 15 mer peptide, region of ns-SNP R776G] : 0.1

Binding Score reported for this sequence QKFSSLYISQFIIMY [synthetic wild type FVIII 15 mer peptide] : 22.9

Measured Binding Score, SDPRCLTRYYSSFVN [synthetic wild type FVIII 15 mer peptide] : 237.9

Entry PWFAHRTPMPKIQNV [synthetic wild type FVIII 15 mer peptide, region of ns-SNP R776G] , Binding Score reported as 4.7

Input ASEGAEYDDQTSQRE [synthetic wild type FVIII 15 mer peptide] . Output Binding Score: 0.0

----------
Biological target: MHC-II DRB1*07:01 (Homo sapiens, UniProt P01903+P01911, A100R/A102G/A103Q/D57E/D86V/E43K/F76Y/K127E/L162R/M171V/P40G/Q125H/Q99D/R33Q/R42Y/R54Q/S133A/S66F/T210M/V115G/Y107V/Y59L/Y89S)
Experiment: Cell-free REVEAL class II binding assay
Settings: signal of test peptide as percentage of allele-specific positive control peptide, fluorescence, conformation-specific monoclonal antibody
// reported Binding Score for each item listed
Report the figure in % without appending any unit label.

Form field Binding Score, entry YSLDGKKWQTYRGNS [synthetic wild type FVIII 15 mer peptide] : 0.0

----------
Each entry below carries its reported Stability Index.
Target: MHC-II DRB1*03:01 (Homo sapiens, UniProt P01903+P01911, A100K/A102G/A103R/A169T/F55Y/I96L/K41T/L162R/M171V/P40S/Q125H/Q178H/Q39Y/R42S/S66N/T106N/T262R/W38E/Y61H)
Sequence (P01903 26-254 limits assumed, other chains not shown): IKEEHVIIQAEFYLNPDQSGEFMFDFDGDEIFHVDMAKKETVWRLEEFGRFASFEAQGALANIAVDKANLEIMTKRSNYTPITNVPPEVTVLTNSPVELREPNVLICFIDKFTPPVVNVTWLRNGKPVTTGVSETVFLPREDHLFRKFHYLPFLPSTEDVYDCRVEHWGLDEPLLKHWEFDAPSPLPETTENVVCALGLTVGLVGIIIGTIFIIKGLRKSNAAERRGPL
Test: Cell-free REVEAL class II stability assay
Details: half-life of peptide-MHC-II complex (h, capped at 120) x Binding Score / 100, conformational ELISA
Hey, just send me the number, nothing else.

Worked cases, Stability Index given:
INSERT INTO results (entry_sequence, endpoint_value) VALUES
  ('YTFKHKMVYEDTLTL [synthetic wild type FVIII 15 mer peptide]', 0.0),
  ('IFNPPIIARYIRLHP [synthetic wild type FVIII 15 mer peptide]', 0.0),
  ('TKSDPRCLTRYYSSF [synthetic wild type FVIII 15 mer peptide]', 2.4),
  ('PENDIEKTDPWFAHR [synthetic wild type FVIII 15 mer peptide, region of ns-SNP R776G]', 0.0),
  ('SYWKASEGAEYDDQT [synthetic wild type FVIII 15 mer peptide]', 0.0);

# Stability Index (sequence: SQFIIMYSLDGKKWQ [synthetic wild type FVIII 15 mer peptide] ) is 0.5

For reference, reported Stability Index for FSSLYISQFIIMYSL [synthetic wild type FVIII 15 mer peptide] stands at 0.0

Measured Stability Index of KMVYEDTLTLFPFSG [synthetic wild type FVIII 15 mer peptide] : 21.0

Form field Stability Index, entry SRPYNIYPHGITDVR [synthetic wild type FVIII 15 mer peptide, region of ns-SNP R484H] : 0.0

Form: sequence = PRCLTRYYSSFVNME [synthetic wild type FVIII 15 mer peptide] ; Stability Index = 0.1

----------
Entries and their Stability Index
Target: MHC-II DRB1*03:01 (Homo sapiens, UniProt P01903+P01911, A100K/A102G/A103R/A169T/F55Y/I96L/K41T/L162R/M171V/P40S/Q125H/Q178H/Q39Y/R42S/S66N/T106N/T262R/W38E/Y61H)
Experiment: Cell-free REVEAL class II stability assay
Settings: half-life of peptide-MHC-II complex (h, capped at 120) x Binding Score / 100, conformational ELISA
// return a plain number; no unit text

get_value(item= IIMYSLDGKKWQTYR [synthetic wild type FVIII 15 mer peptide] , readout=Stability Index) returns 1.7

Kindly note the recorded Stability Index for DVRPLYSRRLPKGVK [synthetic wild type FVIII 15 mer peptide, region of ns-SNP R484H] , which is 0.2

Looking up TLTLFPFSGETVFMS [synthetic wild type FVIII 15 mer peptide] , I see its Stability Index listed as 0.0
